These data points were gathered from PubChem BioAssay.

experiment: HepG2 cytotoxicity, primary screen, cytotoxicity control for P. falciparum antimalarial project, cell-based, ATP luminescence (AID 2303); conditions: HepG2 viability, 24-48 h, at 10 µM, stronger effect = higher value;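 further: 0% = DMSO wells and 100% = digitonin-killed cells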
Parameter Measured: inhibition (%)
The response must be a number in % with no trailing unit.

INPUT: If you can, please state the reported inhibition value of `O=C(Nc1ccc(CC(=O)N2CCc3cc(Cl)c(N4CCN(C/C=C/c5ccccc5)CC4)cc32)cc1)Nc1cccc([N+](=O)[O-])c1` .
OUTPUT: -8

INPUT: Name the recorded inhibition for `FC(F)(F)c1ccc2nc(-c3ccc(-c4cccc(CN5CCN(CCN6CCOCC6)CC5)c4)cc3)[nH]c2c1` .
OUTPUT: 47

INPUT: Would you kindly share the measured inhibition for `CCN(CC)CCNc1ccnc2ccc3ccccc3c12` ?
OUTPUT: 5

INPUT: // query inhibition value for entry `CCCCN(CCCC)CCNC(=O)c1ccc(-c2nc3ccc(Cl)cc3[nH]2)c(OCC)c1`
OUTPUT: 0

INPUT: So what does the record say about inhibition for `COc1cccc2c1CCN(CCN1CCC(CNC(=O)c3ccc(-c4ccc(C#N)cc4)cc3)CC1)C2` ?
OUTPUT: 57

INPUT: Fill in the blank: the reported inhibition of `C=CCN1CCC(N(Cc2cccc(Oc3ccccc3)c2)C(=O)C(c2ccccc2)c2ccccc2)CC1` is ____.
OUTPUT: 7

INPUT: Bench note: what inhibition did `FC(F)(F)COc1c(CCNCCCCNCCc2ccc3ccccc3c2OCC(F)(F)F)ccc2ccccc12` show?
OUTPUT: 99

INPUT: Dear colleague, I am looking for the recorded inhibition of the following molecule: `O=C(c1ccc(O)c(-c2cc(Cl)cc(Cl)c2)c1)N(CCO)CCO`
OUTPUT: 1

INPUT: Quick check: inhibition of `Cc1ccc2nc(NC#N)[nH]c2c1` ?
OUTPUT: 7

INPUT: # inhibition lookup, item O=C(NCc1ccccn1)C(c1cc2ccccc2o1)N1CCN(C(c2ccccc2)c2ccccc2)CC1 (centres undefined)
OUTPUT: 17

INPUT: Consider the molecule shown here: `O=C1CSc2ccc(CNC3CCN(CCc4c(Cl)cnc5ccc(Cl)cc45)CC3)nc2N1` What is its recorded inhibition?
OUTPUT: 25

INPUT: Would you mind telling me what inhibition value was observed for `O=C(Nc1cccc(-c2nc3ccccc3s2)c1)c1ccccc1[N+](=O)[O-]` ?
OUTPUT: 0

INPUT: Which inhibition value belongs to CSC1=NC(=Nc2c(C)cccc2C)C2(CCC(C(C)(C)C)CC2)N1c1ccc(O)cc1 (centres undefined) ?
OUTPUT: 5

INPUT: Recorded inhibition for COc1cc(Nc2ccc3cc(S(=O)(=O)N4CCCCC4C)ccc3n2)cc(OC)c1OC (centres undefined) , please?
OUTPUT: -5

INPUT: Quick one: inhibition of CCCCCCN(CCCCCC)CC(O)c1c(OC)ccc2ccccc12 (centres undefined) ?
OUTPUT: 18

INPUT: Reported inhibition for `Cc1cccc(CNc2nc(C)cc(NCCC(=O)NCCOc3ccccc3)n2)c1` : what is it?
OUTPUT: 18

INPUT: Please look up its inhibition: `c1ccc2c(Nc3ccc(OCCOCCOc4ccc(Nc5c6ccccc6nc6ccccc56)cc4)cc3)c3ccccc3nc2c1`
OUTPUT: 38

INPUT: Need inhibition, item `O=C(/C=C/c1ccc(Cl)c(Cl)c1)NCCCCCN1CCN(C(=O)Nc2ccc(Cl)c(C(F)(F)F)c2)CC1`
OUTPUT: 22

INPUT: Suppose we examine the molecule `O=C(NCCCCN1CCC(c2ccc3c(c2OCCN2CCCC2)CCCC3)CC1)c1ccc(-c2ccc(C(F)(F)F)cc2)cc1` ; what inhibition value has been reported?
OUTPUT: 25

----------
biological target: Calcium-dependent protein kinase 1 (Plasmodium falciparum (isolate 3D7)) (UniProt P62344); assay: PfCDPK1 kinase inhibitors, biochemical, TCAMS library (AID 1159585); details: recombinant PfCDPK1, Kinase-Glo ATP depletion luminescence;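 further: inhibitors leave more ATP so luminescence rises with inhibition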
Sequence (P62344 whole entry, looked up): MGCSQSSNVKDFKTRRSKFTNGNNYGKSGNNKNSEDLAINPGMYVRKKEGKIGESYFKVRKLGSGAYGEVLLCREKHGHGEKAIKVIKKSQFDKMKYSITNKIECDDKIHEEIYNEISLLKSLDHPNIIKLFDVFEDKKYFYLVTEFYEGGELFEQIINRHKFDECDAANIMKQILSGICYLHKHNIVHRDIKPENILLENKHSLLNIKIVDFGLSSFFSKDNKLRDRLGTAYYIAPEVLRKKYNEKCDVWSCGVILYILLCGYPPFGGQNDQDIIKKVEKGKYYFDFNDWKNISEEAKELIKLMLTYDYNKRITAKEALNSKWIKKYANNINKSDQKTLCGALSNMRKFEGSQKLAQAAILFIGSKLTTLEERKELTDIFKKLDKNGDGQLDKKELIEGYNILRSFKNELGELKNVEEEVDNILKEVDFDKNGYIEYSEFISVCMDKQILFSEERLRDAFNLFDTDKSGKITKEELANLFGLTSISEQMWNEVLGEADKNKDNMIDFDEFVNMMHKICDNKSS
Potency and affinity values are given separately. Activity calls are given as the source filed them. The limit is not given here; nearly all actives have IC50 up to about 0.98 µM.
Parameter Measured: outcome

Cc1nc2ccc3ccc(CNc4ccc(C(=O)N[C@@H](CCC(=O)O)C(=O)O)cc4)cc3c2c(=O)[nH]1	inactive
CCn1c(Sc2ccc([N+](=O)[O-])c(C#N)c2)nnc1-c1cccc(Cl)c1	inactive
Cc1cc2cc(-c3ccc(CN)cc3)ccc2nc1N	inactive
CCOc1cc(O)c(-c2nc(N)ncc2-c2ccc3c(c2)OCCO3)cc1CC	inactive

INPUT: Form field: outcome recorded for `Cc1ccc(F)cc1S(=O)(=O)Nc1cccc(CCN2CCC(N3CCCCC3)CC2)c1` with Calcium-dependent protein kinase 1 (Plasmodium falciparum (isolate 3D7)) (UniProt P62344) (enter value)
OUTPUT: inactive

INPUT: For the record `Cc1cc(N2CCC(NS(=O)(=O)c3ccc(F)cc3)CC2)nc(Nc2cccc(C#N)c2)n1` , what value of outcome is listed for Calcium-dependent protein kinase 1 (Plasmodium falciparum (isolate 3D7)) (UniProt P62344)?
OUTPUT: inactive

INPUT: Record CCN1CCC(N(Cc2ccc(-c3ccc(C(F)(F)F)cc3)cc2)C(=O)Cn2c(CCc3cccc(F)c3F)cc(=O)c3ccccc32)C1 (centres undefined) : what is its outcome with Calcium-dependent protein kinase 1 (Plasmodium falciparum (isolate 3D7)) (UniProt P62344)?
OUTPUT: inactive

INPUT: Record lookup: for Calcium-dependent protein kinase 1 (Plasmodium falciparum (isolate 3D7)) (UniProt P62344), what outcome belongs to O=C(/C=C/c1ccc(Cl)cc1)NCCCCCN1CCCC(C(=O)Nc2ccc(Cl)c(Cl)c2)C1 (centres undefined) ?
OUTPUT: inactive

INPUT: # get_value(readout= outcome, system= Calcium-dependent protein kinase 1 (Plasmodium falciparum (isolate 3D7)) (UniProt P62344)) for `CC(C)CNC(=O)c1ccnc(-c2ccc(CNC3Cc4ccccc4C3)cc2)c1`
OUTPUT: inactive

INPUT: Query the reported outcome for Calcium-dependent protein kinase 1 (Plasmodium falciparum (isolate 3D7)) (UniProt P62344); item: `COc1cccc2[nH]c(NCCCNCc3cc(Br)cc(Br)c3)nc12`
OUTPUT: inactive

INPUT: Form entry - test system: Calcium-dependent protein kinase 1 (Plasmodium falciparum (isolate 3D7)) (UniProt P62344); read-out: outcome; molecule: `O=C(Nc1cc(Cl)ccc1O)c1cnn2c(C(F)(F)F)cc(-c3cccs3)nc12`
OUTPUT: inactive

----------
target: L-lactate dehydrogenase (Plasmodium falciparum (isolate CDC / Honduras)); assay: PfLDH activity inhibition – cell lysate, 3D7 strain, counter-screen for P. falciparum growth inhibition project (AID 2304);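 further: 0% = vehicle and 100% = reference inhibitor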; conditions: P. falciparum 3D7 crude extract, LDH APAD/NBT absorbance; at 2 µM; stronger effect = higher value
Parameter Measured: inhibition (%)
Could you give me the number in %? Just the number is fine.

INPUT: Need inhibition, item `Cc1[nH]c(C)c(-c2ccc(Oc3cccc(Cl)c3)cc2)c(=O)c1Br`
OUTPUT: 3

INPUT: Find the recorded inhibition belonging to `COc1cc2nc(Nc3ccc4c(c3)OCCO4)nc(N)c2cc1OC` and report it.
OUTPUT: -3

INPUT: Query (compound): CC(C)(C)c1ccc(CN2CCC(CNC(=O)c3cc(-c4cccc(F)c4)cs3)C2)cc1 (stereo not given) ; field requested: inhibition
OUTPUT: 3

INPUT: I have this compound here, O=C(NC1CCC(N2CCC(Cc3ccc(F)cc3)CC2)CC1)c1cc2ccccc2[nH]1 (stereo not given) , and I need its recorded inhibition.
OUTPUT: -2

INPUT: Which measured inhibition value corresponds to `Cc1cccc(C(=O)NCCCN2CCC(NC(=O)/C=C/c3ccc(Cl)c(Cl)c3)CC2)c1` ?
OUTPUT: 1

INPUT: Would you kindly share the measured inhibition for `COc1ccc2nccc([C@@H](O)CN3CCC(NCc4ccc5sc(=O)[nH]c5c4)CC3)c2c1` ?
OUTPUT: -3

INPUT: Look at this compound and give its reported inhibition. `Cc1cc(C)c(NC(=O)N2CCCN(CCCCCNC(=O)/C=C/c3ccc(Cl)c(Cl)c3)CC2)c(C)c1`
OUTPUT: 3

INPUT: Entry under review: `Clc1ccc(CNCCCCCCNCc2ccc(Cl)cc2)cc1` . Reported inhibition?
OUTPUT: 1

INPUT: Reported inhibition for `CC1CCN(Cc2c(O)ccc3c(=O)c(-c4nc5ccccc5s4)c(N)oc23)CC1` : what is it?
OUTPUT: -6

INPUT: # input compound: `COC(=O)c1noc(C)c1I` ; wanted: its inhibition
OUTPUT: -9

INPUT: Can you share its inhibition? I mean this compound: `O=C(Nc1cccc(Cl)c1Cl)N1CCc2cc3nccc(N4CCN5CCC[C@H]5C4)c3cc21`
OUTPUT: -1

INPUT: Which measured inhibition value corresponds to `CC(C)CCN=C(N)Nc1ccc(OCCCCCOc2ccc(NC(N)=NCCC(C)C)cc2)cc1` ?
OUTPUT: 6

INPUT: Please look up its inhibition: `CCNc1cc(C(=O)N[C@@H](Cc2ccccc2)[C@H](O)CNCc2cccc(OC)c2C)cc(N2CCCCS2(=O)=O)c1`
OUTPUT: -1

INPUT: Which inhibition is reported for this compound? O=C(NCc1ccccc1)NC1CCN(c2ccnc3cc(Cl)ccc23)C1 (stereo not given)
OUTPUT: -2

INPUT: Query: inhibition; subject: `Cc1cc(N[C@@H](Cc2ccccc2)C(=O)NCc2cccs2)nc(Nc2ccccc2)n1`
OUTPUT: -2

INPUT: Recorded inhibition of `Clc1cc(Br)ccc1-c1ccc(CNCC2CCNCC2)o1` , please.
OUTPUT: 1

INPUT: // returns reported inhibition for input `NCCNc1ccc([N+](=O)[O-])cc1C(=O)Nc1cccc(Cl)c1`
OUTPUT: 4

INPUT: For `Cc1cccc(NC(=S)NC2CCN(CCCCCNC(=O)/C=C/c3ccc(Cl)c(Cl)c3)CC2)c1` , what is its reported inhibition?
OUTPUT: 4

INPUT: Endpoint output: inhibition of `COC(=O)c1cccc(CNCc2cccc(-c3ccc(-c4nc5c(C)cccc5[nH]4)cc3)c2)c1` . Value?
OUTPUT: 2

INPUT: For the compound shown here, `N#Cc1cc([N+](=O)[O-])ccc1-n1nc(C(N)=O)n(Cc2cccc(F)c2)c1=S` , give the reported inhibition.
OUTPUT: -4
